# Ki values compiled below
# system: MK-801 sites located at the NMDA receptor ion channel
# measurement notes: Inhibition of [3H]MK-801 binding to rat forebrain membranes
# cond: [3H]MK801 binding, rat forebrain membranes; representative experiment in triplicate (HU259); read-out: inhibition constant (K1)
measurement type: Ki (µM)

- CCCCCCC(C)(C)c1cc(O)c2c(c1)OC(C)(C)[C@H]1CC=C(CO)C[C@H]21 [HU-211, reference compound]: 11.3
- CCCCCCC(C)(C)c1cc(OC(C)=O)c([C@H]2C=C(C(=O)O)[C@H]3C[C@@H]2C3(C)C)c(OC(C)=O)c1: 7.6

----------
# System: Rat brain NMDA receptors
# measurement notes: Blockade of NMDA response in Xenopus oocytes injected with rat brain RNA
# Type: biochemical
# cond: 10 μM
measurement type: % inhibition of NMDA (%)

• CCCCCCC(C)(C)c1cc(O)c2c(c1)OC(C)(C)[C@H]1CC=C(CO)C[C@H]21 [HU-211, reference compound] = 47
• CCCCCCC(C)(C)c1cc(O)c2c(c1)OC(C)(C)[C@@H]1CC=C(CO)C[C@@H]21 [HU-210, reference compound] = 0
• CCCCCCC(C)(C)c1cc(OC(C)=O)c([C@H]2C=C(C(=O)O)[C@H]3C[C@@H]2C3(C)C)c(OC(C)=O)c1 = 41
• CCCCCCC(C)(C)c1cc(OC(C)=O)c([C@H]2C=C(C(=O)NCCO)[C@H]3C[C@@H]2C3(C)C)c(OC(C)=O)c1 [HU-271] = 20

The measurements presented in this section are drawn from patent US5434295A.
